ASSAY_NAME: In vivo pharmacokinetic study after intraperitoneal administration, plasma LC-MS/MS
PARTICULARS: male, ICR, mouse, plasma, ip, 5 mg/kg, 5 mg/kg intraperitoneal, ICR mice, plasma, n = 5; read-out: MRT0−∞
VALUE_TYPE: MRT inf (h)
Just the number please, in h, no unit attached.

## Task Look up MRT inf of COc1cc2c(=O)c3c(O)cccc3oc2c(OC)c1OC [HTX, 1-hydroxy-5,6,7-trimethoxyxanthone] and report it.
## Result 14.8
